system: P. falciparum 3D7 (wild-type strain); assay: In vitro inhibition of P. falciparum 3D7; assay type: cell-based, Plasmodium falciparum; settings: Plasmodium falciparum, 3D7 strain, read-out: Pf-3D7 ED50
One threshold, 0.4 µg/mL, splits the recorded IC50 values: lower ones are Fulfilled, equal or higher ones are Not fulfilled.

>>> df
                                    molecule          class
 0  NC1=NC(c2ccc(Oc3ccccc3)cc2)N(c2ccc(Cl)cc2)C(N)=N1 (stereo not shown)      Fulfilled
 1  NC1=NC(c2ccc(-c3ccccc3)cc2)N(c2ccc(Cl)cc2)C(N)=N1 (stereo not shown)  Not fulfilled
 2  NC1=NC(c2cccc(Oc3ccccc3)c2)N(c2ccc(Cl)cc2)C(N)=N1 (stereo not shown)      Fulfilled
 3  NC1=NC(c2cccc(OCc3ccccc3)c2)N(c2cccc(Cl)c2)C(N)=N1 (stereo not shown)  Not fulfilled
 4  NC1=NC(c2cccc(Oc3ccccc3)c2)N(c2cccc(Cl)c2)C(N)=N1 (stereo not shown)      Fulfilled
 5  NC1=NC(c2ccc(OCc3ccccc3)cc2)N(c2ccc(Cl)cc2)C(N)=N1 (stereo not shown)      Fulfilled
 6  CC(C)(C)c1ccc(Oc2cccc(C3N=C(N)N=C(N)N3c3ccc(Cl)cc3)c2)cc1 (stereo not shown)  Not fulfilled
 7  NC1=NC(c2cccc(OCc3ccccc3)c2)N(c2ccc(Cl)cc2)C(N)=N1 (stereo not shown)      Fulfilled
 8  COc1ccc(Oc2cccc(C3N=C(N)N=C(N)N3c3ccc(Cl)cc3)c2)cc1 (stereo not shown)  Not fulfilled
 9           Cl.NC1=NCN(c2ccc(Cl)cc2)C(N)=N1      Fulfilled
10  CCCCOc1ccc(C2N=C(N)N=C(N)N2c2ccc(Cl)cc2)cc1 (stereo not shown)      Fulfilled
11  NC1=NC(c2cccc(Oc3ccc(Cl)cc3)c2)N(c2cccc(Cl)c2)C(N)=N1 (stereo not shown)      Fulfilled

---

system: A16V.S108T mutant (mut) of DHFR from Plasmodium falciparum; assay: biochemical; conditions: resistance factor

COMPOUND	Ki(mut)/Ki(wt)
NC1=NCN(c2cccc(Cc3ccccc3)c2)C(N)=N1 [R2=H, X=H, Y=Bn]	0.6
NC1=NC(c2ccc(OCc3ccccc3)cc2)N(c2ccc(Cl)cc2)C(N)=N1 (stereo not shown) [(Ia) R2=p-benzyloxyphenyl]	7.3
NC1=NCN(c2ccc(OCc3ccccc3)cc2)C(N)=N1 [R2=H, X=BnO, Y=H]	1.3
NC1=NC(c2cccc(Oc3ccc(Cl)cc3)c2)N(c2cccc(Cl)c2)C(N)=N1 (stereo not shown) [(Ib) R2=3-(4-chlorophenoxy)phenyl]	2.7
NC1=NC(c2cccc(Oc3ccccc3)c2)N(c2cccc(/C=C/c3ccc(Cl)cc3Cl)c2)C(N)=N1 (stereo not shown) [(Id2) R2=3-phenoxyphenyl]	1.7
NC1=NC(c2ccc(-c3ccccc3)cc2)N(c2ccc(Cl)cc2)C(N)=N1 (stereo not shown) [(Ia) R2=4-biphenyl]	6.5
NC1=NC(c2cccc(OCc3ccccc3)c2)N(c2ccc(Cl)cc2)C(N)=N1 (stereo not shown) [(Ia) R2=m-benzyloxyphenyl]	8.8
NC1=NC(c2cccc(OCc3ccccc3)c2)N(c2cccc(Cc3ccccc3)c2)C(N)=N1 (stereo not shown) [R2=3-BnOC6H4, X=H, Y=Bn]	3.2
NC1=NC(c2ccc(F)cc2)N(c2ccc(Cl)cc2)C(N)=N1 (stereo not shown) [(Ia) R2=p-fluorophenyl]	15.1
NC1=NC(c2cccc(Oc3ccc(Cl)cc3)c2)N(c2cccc(/C=C/c3ccc(Cl)cc3Cl)c2)C(N)=N1 (stereo not shown) [(Id2) R2=3-(4-chlorophenoxy)phenyl]	0.9
NC1=NC(c2cccc(Oc3ccccc3)c2)N(c2cccc(-c3ccccc3)c2)C(N)=N1 (stereo not shown)	2.2
COc1cccc(C2N=C(N)N=C(N)N2c2ccc(Cl)cc2)c1 (stereo not shown) [(Ia) R2=m-methoxyphenyl]	6.0
NC1=NC(c2ccc(OCc3cc(F)cc(F)c3)cc2)N(c2cccc(Cl)c2)C(N)=N1 (stereo not shown) [(Ib) R2=4-(3,5-difluorobenzyloxy)phenyl]	1.7
CCCOc1ccc(C2N=C(N)N=C(N)N2OCCCOc2cc(Cl)c(Cl)cc2Cl)cc1 (stereo not shown)	3.6
NC1=NC(c2cccc(Oc3ccccc3)c2)N(c2ccc(Cl)cc2)C(N)=N1 (stereo not shown) [(Ia) R2=m-phenoxyphenyl]	5.4
CCOc1ccc(C2N=C(N)N=C(N)N2c2ccc(Cl)cc2)cc1 (stereo not shown) [(Ia) R2=p-ethoxyphenyl]	24.3
